target: human platelet PLA2 (Homo sapiens); construct: Semi-purified human platelet acid extract PLA2; from tissue; host or cells: human platelets (semi-purified acid extract); assay: in vitro isolated phospholipase A2 assay, human platelet PLA2 (Example 74); format: biochemical; set-up: dose or concentration left out as unconfirmed; conditions: read-out: % Inhibition, HP (human platelet)
Output: class label from inhibition. Mapping: L: < 2%; M: ≥ 2% and < 40%; H: ≥ 40%

Which category does the recorded inhibition put Cc1c(CC(=O)NOCc2ccccc2)c2cc(OCc3nc4ccccc4s3)ccc2n1Cc1ccc(Cl)cc1 in?
M

Which category does the recorded inhibition put CCCCCCOc1ccc2c(c1)c(CC(=O)O)c(C)n2Cc1ccc(Cl)cc1 in?
H

Which category does the recorded inhibition put Cc1c(CC(N)=O)c2cc(OCc3nc4ccccc4s3)ccc2n1Cc1ccc(Cl)cc1 in?
M

Which category does the recorded inhibition put CCOC(=O)Cc1c(C)n(Cc2csc(-c3ccc(Cl)cc3)n2)c2ccc(OCc3csc(-c4ccccc4)n3)cc12 in?
L

Which category does the recorded inhibition put COc1cccc(Cn2c(C)c(CC(=O)O)c3cc(OCc4csc(-c5ccccc5)n4)ccc32)c1 in?
M

Which category does the recorded inhibition put Cc1c(CCO)c2cc(OCc3csc(-c4ccccc4)n3)ccc2n1Cc1ccccc1 in?
M

Which category does the recorded inhibition put CC1=C(CC(=O)O)c2cc(F)ccc2C1=Cc1ccc(OCc2ccc3ccccc3n2)cc1 in?
H

Which category does the recorded inhibition put CONC(=O)Cc1c(C)n(Cc2ccc(Cl)cc2)c2ccc(OCc3nc4ccccc4s3)cc12 [Example 47, hemihydrate] in?
M

Which category does the recorded inhibition put Cc1c(CC(=O)O)c2cc(OCc3coc(-c4ccccc4)n3)ccc2n1Cc1ccccc1 [Example 71, hemihydrate] in?
H

Which category does the recorded inhibition put Cc1c(CC(=O)O)c2cc(OCc3ccc4ccccc4n3)ccc2n1Cc1ccc2ccccc2n1 in?
H

Which category does the recorded inhibition put CCOC(=O)Cc1c(C)n(Cc2ccc3ccccc3c2)c2ccc(OCc3csc(-c4ccccc4)n3)cc12 in?
L

----------
target: human platelet PLA2 (Homo sapiens, UniProt P14555); construct: Semi-purified human platelet acid extract PLA2; from tissue; host or cells: human platelets (semi-purified acid extract); assay: in vitro isolated phospholipase A2 assay, human platelet PLA2 (Example 74); format: biochemical; set-up: dose or concentration left out as unconfirmed; settings: read-out: % Inhibition, HP (human platelet)
Sequence (P14555 21-144): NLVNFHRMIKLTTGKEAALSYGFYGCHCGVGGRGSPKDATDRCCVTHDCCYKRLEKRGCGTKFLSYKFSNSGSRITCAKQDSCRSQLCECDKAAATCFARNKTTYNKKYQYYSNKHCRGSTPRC
Record form. Attribute: inhibition. Fill in for each entry.

What value of measured inhibition is listed for Cc1c(CC(=O)O)c2cc(OCc3nc4ccccc4s3)ccc2n1Cc1ccccc1 ?
41%

What value of measured inhibition is listed for CCOC(=O)Cc1c(C)n(Cc2ccc(Cl)cc2)c2ccc(OCc3csc(-c4ccc(Cl)cc4)n3)cc12 ?
2%

What value of measured inhibition is listed for Cc1c(CC(=O)O)c2cc(OCc3csc(-c4ccccc4)n3)ccc2n1CCCc1ccccc1 ?
2%

What value of measured inhibition is listed for CSc1ccc(Cn2c(C)c(CC(=O)O)c3cc(OCc4nc5ccccc5s4)ccc32)cc1 ?
2%
